- method.notes: Rate constant at 7.4 pH
- Assay type: ADME
- settings: pH 7.4
measured.metric: k obs (h⁻¹)

P = Oc1ccc([C@H]2NC=N[C@H]2c2ccc(O)cc2Cl)c(Cl)c1
Q = CCN1C=N[C@@H](c2ccc(O)cc2Cl)[C@H]1c1ccc(O)cc1Cl
Sort P and Q by k obs descending and give the first. Give the label of your selection. P
(P: 0.15 h⁻¹, Q: 0.004 h⁻¹)

P = COc1ccc([C@H]2N=CN[C@H]2c2ccc(OC)cc2Cl)c(Cl)c1
Q = Oc1ccc([C@H]2N=CN[C@H]2c2ccc(O)cc2)cc1
I'm curious, which of these has a smaller k obs number: P or Q ? Give the label of your selection. Q

###

- measured.target: Estrogen receptor (Homo sapiens, UniProt P03372)
- Sequence (P03372 whole entry): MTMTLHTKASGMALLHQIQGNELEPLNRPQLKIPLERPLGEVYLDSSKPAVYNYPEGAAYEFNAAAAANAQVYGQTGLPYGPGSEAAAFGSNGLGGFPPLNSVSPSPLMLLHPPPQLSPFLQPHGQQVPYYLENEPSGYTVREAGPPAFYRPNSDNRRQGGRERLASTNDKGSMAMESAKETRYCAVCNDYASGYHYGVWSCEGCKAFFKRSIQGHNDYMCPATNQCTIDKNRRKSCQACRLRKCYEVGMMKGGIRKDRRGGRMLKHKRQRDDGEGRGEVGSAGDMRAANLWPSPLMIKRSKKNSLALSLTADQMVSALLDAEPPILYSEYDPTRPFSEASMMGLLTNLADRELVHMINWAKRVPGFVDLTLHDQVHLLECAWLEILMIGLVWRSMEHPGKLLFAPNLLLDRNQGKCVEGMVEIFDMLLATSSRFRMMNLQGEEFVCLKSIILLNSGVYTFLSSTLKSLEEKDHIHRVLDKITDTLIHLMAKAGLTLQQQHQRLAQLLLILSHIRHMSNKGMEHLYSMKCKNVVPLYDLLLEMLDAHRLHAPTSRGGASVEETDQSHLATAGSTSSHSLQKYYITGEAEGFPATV
- method.notes: Concentration required to activate luciferase expression in MCF-7-2a cells
pEC50: −log10 of the molar value.
measured.metric: pEC50

Guide cases for pEC50, answers given:
>  <mol>
CCCN1C=N[C@@H](c2ccc(O)cc2Cl)[C@H]1c1ccc(O)cc1Cl

>  <measured.metric>
pEC50

>  <value.reported>
6.82

$$$$
>  <mol>
N[C@H](c1ccc(O)cc1Cl)[C@@H](NC=O)c1ccc(O)cc1Cl

>  <measured.metric>
pEC50

>  <value.reported>
5.52

$$$$
>  <mol>
CN1C=N[C@@H](c2ccc(O)cc2Cl)[C@H]1c1ccc(O)cc1Cl

>  <measured.metric>
pEC50

>  <value.reported>
6.52

$$$$
>  <mol>
Oc1ccc([C@H]2N=CN[C@H]2c2c(Cl)cc(O)cc2Cl)c(Cl)c1

>  <measured.metric>
pEC50

>  <value.reported>
7.19

$$$$
>  <mol>
N[C@H](c1ccc(O)cc1Cl)[C@@H](N)c1ccc(O)cc1Cl

>  <measured.metric>
pEC50

>  <value.reported>
5.82

$$$$
>  <mol>
CN1C=[N+](C)[C@@H](c2ccc(O)cc2Cl)[C@H]1c1ccc(O)cc1Cl

>  <measured.metric>
pEC50

>  <value.reported>
6.11

$$$$

1 = CCN1C=N[C@@H](c2ccc(O)cc2Cl)[C@H]1c1ccc(O)cc1Cl
2 = CCN1C=[N+](CC)[C@@H](c2ccc(O)cc2Cl)[C@H]1c1ccc(O)cc1Cl
3 = CC1=N[C@@H](c2c(Cl)cc(O)cc2Cl)[C@@H](c2ccc(O)cc2Cl)N1
Put the items in sequence by pEC50, from largest down. Record the ranking as a list of labels in the requested order. 1, 2, 3
(1: 7.82, 2: 6.30, 3: 5.30)

Data origin: ChEMBL document CHEMBL1148415
